Molecular target: 5-HT1A receptor (Homo sapiens)
Construct: expressed in transfected cells; host or cells: CHO cells, stably transfected
Sequence (P08908 whole entry): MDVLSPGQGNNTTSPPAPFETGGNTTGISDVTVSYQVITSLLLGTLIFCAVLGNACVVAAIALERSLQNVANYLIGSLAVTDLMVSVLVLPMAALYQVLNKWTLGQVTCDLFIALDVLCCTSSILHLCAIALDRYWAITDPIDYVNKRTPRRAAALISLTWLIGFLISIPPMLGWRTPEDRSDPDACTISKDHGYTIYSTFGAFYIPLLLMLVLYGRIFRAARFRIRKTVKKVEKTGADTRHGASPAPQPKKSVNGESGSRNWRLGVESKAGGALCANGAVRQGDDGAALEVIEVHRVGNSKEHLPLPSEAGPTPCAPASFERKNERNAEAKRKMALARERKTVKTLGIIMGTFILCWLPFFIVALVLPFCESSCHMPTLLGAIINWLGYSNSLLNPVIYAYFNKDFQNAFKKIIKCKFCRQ
Assay: cell-based
Conditions: CHO, agonist, Ca2+ flux, CHO cells with Gα15, max dose; read-out: 5-HT1A % Act @ Max Dose
In this section we review reported Emax values for a set of compounds.
// note: answer is a bare numeric in %

Guide cases for Emax, answers given:
- compound: "CCN(CC)C(=O)[C@@H]1C=C2c3cccc4[nH]cc(c34)C[C@H]2N(CCC(F)(F)F)C1 [Compound 12]"
  target_under_test: "5-HT1A receptor (Homo sapiens)"
  obs_value: 71.4
- compound: "CCN(CC)C(=O)[C@@H]1C=C2c3cccc4c3C(CN4)C[C@H]2N(C)C1 (mixture of isomers) [Compound 37]"
  target_under_test: "5-HT1A receptor (Homo sapiens)"
  obs_value: 109
- compound: "CCCN1C[C@H](C(=O)N(CC)CC)C=C2c3cccc4[nH]cc(c34)C[C@H]21 [Compound 1]"
  target_under_test: "5-HT1A receptor (Homo sapiens)"
  obs_value: 95.6

Which value of Emax has been reported for CCN(C)C(=O)[C@@H]1C=C2c3cccc4[nH]cc(c34)C[C@H]2N(Cc2cccc(OC)c2)C1 [Compound 92] in the records?
21.6

Which value of Emax has been reported for CCN(CC)C(=O)[C@@H]1C=C2c3cccc4[nH]cc(c34)C[C@H]2N(Cc2cccc(OC)c2)C1 [Compound 18] in the records?
28.9

Which value of Emax has been reported for CCCN1C[C@H](C(=O)N2[C@@H](C)C[C@@H]2C)C=C2c3cccc4[nH]c(Br)c(c34)C[C@H]21 [Compound 47] in the records?
62.1

Which value of Emax has been reported for CCN(CC)C(=O)[C@@H]1C=C2c3cccc4[nH]cc(c34)C[C@H]2N(CCCF)C1 [Compound 2] in the records?
92.4

Which value of Emax has been reported for COc1cccc(CN2C[C@H](C(=O)N3[C@@H](C)C[C@@H]3C)C=C3c4cccc5[nH]cc(c45)C[C@H]32)c1 [Compound 94] in the records?
64.8

Which value of Emax has been reported for CC[C@@H](C)NC(=O)[C@@H]1C=C2c3cccc4[nH]cc(c34)C[C@H]2N(Cc2ccccc2)C1 [Compound 88] in the records?
76.7

Which value of Emax has been reported for CC[C@@H](C)NC(=O)[C@@H]1C=C2c3cccc4[nH]cc(c34)C[C@H]2N(C)C1 [Int8] in the records?
90.2

Which value of Emax has been reported for CCC[C@@H](C)NC(=O)[C@H]1C=C2c3cccc4[nH]cc(c34)C[C@H]2N(C)C1 [Int17a] in the records?
88.5

Which value of Emax has been reported for C[C@H]1C[C@H](C)N1C(=O)[C@@H]1C=C2c3cccc4[nH]cc(c34)C[C@H]2N(CCCF)C1 [Compound 26] in the records?
97.9

These data points were gathered from patent US20260317319A1.
